target: Voltage-dependent T-type calcium channel subunit alpha-1G (Homo sapiens, UniProt O43497); experiment: Inhibition of T-type alpha1G calcium channel expressed in HEK293 cells assessed as Kcl-induced depolarization at 10 uM; format: cell-based
Sequence (O43497 whole entry): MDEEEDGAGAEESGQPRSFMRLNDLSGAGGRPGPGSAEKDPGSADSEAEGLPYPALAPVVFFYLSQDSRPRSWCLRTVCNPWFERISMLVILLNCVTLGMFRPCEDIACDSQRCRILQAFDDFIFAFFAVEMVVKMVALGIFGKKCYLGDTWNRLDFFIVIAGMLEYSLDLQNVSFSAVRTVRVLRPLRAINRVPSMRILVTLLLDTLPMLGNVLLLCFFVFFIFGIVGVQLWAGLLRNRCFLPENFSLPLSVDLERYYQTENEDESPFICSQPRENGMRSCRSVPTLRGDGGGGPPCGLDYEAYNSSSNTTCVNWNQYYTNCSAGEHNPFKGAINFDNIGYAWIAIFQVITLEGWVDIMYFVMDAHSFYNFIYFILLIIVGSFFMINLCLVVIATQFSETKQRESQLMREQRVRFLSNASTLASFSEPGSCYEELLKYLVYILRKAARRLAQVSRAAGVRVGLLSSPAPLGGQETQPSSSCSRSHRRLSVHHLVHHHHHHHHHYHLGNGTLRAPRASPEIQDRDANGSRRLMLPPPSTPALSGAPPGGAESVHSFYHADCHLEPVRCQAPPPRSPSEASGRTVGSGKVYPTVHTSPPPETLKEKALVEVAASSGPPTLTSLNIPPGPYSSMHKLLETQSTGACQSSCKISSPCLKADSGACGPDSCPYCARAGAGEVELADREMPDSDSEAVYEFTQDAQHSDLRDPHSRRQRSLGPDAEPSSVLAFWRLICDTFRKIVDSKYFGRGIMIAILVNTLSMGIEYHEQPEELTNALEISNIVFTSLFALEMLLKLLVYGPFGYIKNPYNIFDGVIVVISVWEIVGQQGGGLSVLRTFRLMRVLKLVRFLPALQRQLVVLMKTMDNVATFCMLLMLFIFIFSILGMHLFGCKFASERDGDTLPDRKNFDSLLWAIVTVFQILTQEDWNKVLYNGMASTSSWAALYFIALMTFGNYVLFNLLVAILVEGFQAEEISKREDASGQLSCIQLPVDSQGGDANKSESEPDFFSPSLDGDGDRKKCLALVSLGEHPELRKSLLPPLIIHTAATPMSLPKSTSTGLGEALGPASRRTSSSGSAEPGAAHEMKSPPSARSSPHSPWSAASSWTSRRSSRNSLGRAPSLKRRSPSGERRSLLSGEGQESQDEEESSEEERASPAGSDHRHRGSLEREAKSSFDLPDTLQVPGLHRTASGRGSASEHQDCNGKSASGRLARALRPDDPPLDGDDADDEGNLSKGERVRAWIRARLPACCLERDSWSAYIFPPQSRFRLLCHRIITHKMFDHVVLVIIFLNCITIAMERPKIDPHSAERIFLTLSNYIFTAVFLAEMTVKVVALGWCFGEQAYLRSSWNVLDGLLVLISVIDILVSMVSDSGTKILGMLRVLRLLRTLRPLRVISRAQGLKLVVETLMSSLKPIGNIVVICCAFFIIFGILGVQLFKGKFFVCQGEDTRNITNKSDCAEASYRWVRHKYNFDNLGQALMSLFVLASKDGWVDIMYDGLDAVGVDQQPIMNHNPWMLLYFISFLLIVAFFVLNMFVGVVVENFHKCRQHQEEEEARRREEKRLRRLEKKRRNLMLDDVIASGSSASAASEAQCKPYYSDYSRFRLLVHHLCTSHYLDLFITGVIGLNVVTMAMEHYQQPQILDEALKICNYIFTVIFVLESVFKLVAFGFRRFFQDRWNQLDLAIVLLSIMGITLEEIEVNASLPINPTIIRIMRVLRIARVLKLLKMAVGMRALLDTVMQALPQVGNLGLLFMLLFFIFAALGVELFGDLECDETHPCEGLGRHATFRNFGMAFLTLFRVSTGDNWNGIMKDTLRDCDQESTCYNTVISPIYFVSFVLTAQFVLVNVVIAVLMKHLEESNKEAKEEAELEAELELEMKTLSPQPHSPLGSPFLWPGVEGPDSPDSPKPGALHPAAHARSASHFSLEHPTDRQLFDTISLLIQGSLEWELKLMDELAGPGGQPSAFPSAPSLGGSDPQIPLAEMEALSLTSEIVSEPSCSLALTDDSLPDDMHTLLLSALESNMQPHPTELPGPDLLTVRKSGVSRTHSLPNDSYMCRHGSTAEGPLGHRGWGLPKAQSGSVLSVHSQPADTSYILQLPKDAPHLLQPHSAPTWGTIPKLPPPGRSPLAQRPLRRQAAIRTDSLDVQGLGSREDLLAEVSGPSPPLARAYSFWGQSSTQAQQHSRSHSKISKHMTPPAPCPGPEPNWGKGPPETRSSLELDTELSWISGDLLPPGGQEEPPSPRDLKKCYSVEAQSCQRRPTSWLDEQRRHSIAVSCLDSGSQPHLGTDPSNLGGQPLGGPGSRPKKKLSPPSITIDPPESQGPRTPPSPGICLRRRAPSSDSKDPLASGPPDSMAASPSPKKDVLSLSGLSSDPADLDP
Below, each entry is listed with its recorded inhibition.
PROPERTY NAME: inhibition (%)

COMPOUND: Cc1ccc2nc(CN3CCN(C(=O)CC(c4ccc(Br)cc4)c4cccc(F)c4)CC3)oc2c1 (stereo not given)
RECORDED NUMBER: 18
--
COMPOUND: Cc1ccc2nc(CN3CCN(C(=O)CC(c4ccc(F)cc4)c4ccc(Br)cc4)CC3)oc2c1 (stereo not given)
RECORDED NUMBER: 11.2
--
COMPOUND: O=C(CC(c1ccc(Br)cc1)c1cccc(F)c1)N1CCN(Cc2nc(CO)co2)CC1 (stereo not given)
RECORDED NUMBER: 21.3
--
COMPOUND: O=C(CC(c1ccc(Br)cc1)c1cccc(F)c1)N1CCN(Cc2nc(C(=O)N3CCOCC3)co2)CC1 (stereo not given)
RECORDED NUMBER: 44.6
--
COMPOUND: Cc1ccc2nc(CN3CCN(C(=O)CC(c4ccc(F)cc4)c4ccc(F)cc4)CC3)oc2c1
RECORDED NUMBER: 30.9

---

biological target: Voltage-dependent T-type calcium channel subunit alpha-1G (Homo sapiens); experiment: Inhibition of T-type alpha1G calcium channel expressed in HEK293 cells by whole-cell patch-clamp method
Response field label: string, one of Condition met (IC50 strictly below 2000 nM) or Condition not met.

COMPOUND: COC(=O)c1coc(CN2CCN(C(=O)CC(c3ccccc3)c3ccc(Br)cc3)CC2)n1 (configuration not stated)
CLASS ASSIGNMENT: Condition not met

COMPOUND: COC(=O)c1coc(CN2CCN(C(=O)CC(c3ccc(F)cc3)c3ccc(C(F)(F)F)cc3)CC2)n1 (configuration not stated)
CLASS ASSIGNMENT: Condition met

COMPOUND: Cc1ccc2nc(CN3CCN(C(=O)CC(c4ccccc4)c4ccc(F)cc4)CC3)oc2c1 (configuration not stated)
CLASS ASSIGNMENT: Condition met

COMPOUND: COc1ccc(C(CC(=O)N2CCN(Cc3nc4ccc(C)cc4o3)CC2)c2ccccc2)cc1 (configuration not stated)
CLASS ASSIGNMENT: Condition not met

COMPOUND: COC(=O)c1coc(CN2CCN(C(=O)CC(c3ccc(F)cc3)c3ccc(Cl)cc3)CC2)n1 (configuration not stated)
CLASS ASSIGNMENT: Condition not met

COMPOUND: COC(=O)c1coc(CN2CCN(C(=O)CC(c3ccccc3)c3ccc(C(F)(F)F)cc3)CC2)n1 (configuration not stated)
CLASS ASSIGNMENT: Condition not met

COMPOUND: COC(=O)c1coc(CN2CCN(C(=O)CC(c3ccc(F)cc3)c3ccc(Br)cc3)CC2)n1 (configuration not stated)
CLASS ASSIGNMENT: Condition met

---

molecular target: Voltage-dependent T-type calcium channel subunit alpha-1G (Homo sapiens); test: Inhibition of T-type alpha1G calcium channel expressed in HEK293 cells assessed as Kcl-induced depolarization at 10 uM; format: cell-based

COMPOUND: Cc1ccc2nc(CN3CCN(C(=O)CC(c4ccc(F)cc4)c4cccc(F)c4)CC3)oc2c1 (stereo not drawn)
inhibition: 44.9%
--
COMPOUND: COC(=O)c1coc(CN2CCN(C(=O)CC(c3ccc(F)cc3)c3ccc(Cl)cc3)CC2)n1 (stereo not drawn)
inhibition: 45.1%
--
COMPOUND: O=C(CC(c1ccc(C(F)(F)F)cc1)c1cccc(F)c1)N1CCN(Cc2nc(CO)co2)CC1 (stereo not drawn)
inhibition: 19.2%
--
COMPOUND: COc1ccc(C(CC(=O)N2CCN(Cc3nc(C(=O)N4CCOCC4)co3)CC2)c2cccc(F)c2)cc1 (stereo not drawn)
inhibition: 19.7%
--
COMPOUND: COc1ccc(C(CC(=O)N2CCN(Cc3nc(C(=O)O)co3)CC2)c2ccc(F)cc2)cc1 (stereo not drawn)
inhibition: 7.68%
--
COMPOUND: COc1ccc(C(CC(=O)N2CCN(Cc3nc4ccc(C)cc4o3)CC2)c2ccc(F)cc2)cc1 (stereo not drawn)
inhibition: 23.3%
--
COMPOUND: COc1ccc(C(CC(=O)N2CCN(Cc3nc4ccc(C)cc4o3)CC2)c2ccccc2)cc1 (stereo not drawn)
inhibition: 63.5%
--
COMPOUND: COC(=O)c1coc(CN2CCN(C(=O)CC(c3ccc(C(F)(F)F)cc3)c3cccc(F)c3)CC2)n1 (stereo not drawn)
inhibition: 57.6%
--
COMPOUND: COC(=O)c1coc(CN2CCN(C(=O)CC(c3ccc(Br)cc3)c3cccc(F)c3)CC2)n1 (stereo not drawn)
inhibition: 36.6%
--
COMPOUND: Cc1ccc2nc(CN3CCN(C(=O)CC(c4ccc(F)cc4)c4ccc(C(F)(F)F)cc4)CC3)oc2c1 (stereo not drawn)
inhibition: 9.84%
--
COMPOUND: COC(=O)c1coc(CN2CCN(C(=O)CC(c3ccc(F)cc3)c3ccc(C(F)(F)F)cc3)CC2)n1 (stereo not drawn)
inhibition: 51.8%
--
COMPOUND: O=C(CC(c1ccc(Cl)cc1)c1cccc(F)c1)N1CCN(Cc2nc(C(=O)N3CCOCC3)co2)CC1 (stereo not drawn)
inhibition: 48.6%
--
COMPOUND: Cc1ccc2nc(CN3CCN(C(=O)CC(c4ccc(Cl)cc4)c4cccc(F)c4)CC3)oc2c1 (stereo not drawn)
inhibition: 32.2%
--
COMPOUND: COC(=O)c1coc(CN2CCN(C(=O)CC(c3ccccc3)c3ccc(F)cc3)CC2)n1 (stereo not drawn)
inhibition: 27.7%
--
COMPOUND: COC(=O)c1coc(CN2CCN(C(=O)CC(c3ccccc3)c3ccc(Br)cc3)CC2)n1 (stereo not drawn)
inhibition: 42.8%
--
COMPOUND: O=C(CC(c1ccc(F)cc1)c1cccc(F)c1)N1CCN(Cc2nc(CO)co2)CC1 (stereo not drawn)
inhibition: 13.7%
--
COMPOUND: O=C(O)c1coc(CN2CCN(C(=O)CC(c3ccc(F)cc3)c3ccc(C(F)(F)F)cc3)CC2)n1 (stereo not drawn)
inhibition: 3.62%
--
COMPOUND: COC(=O)c1coc(CN2CCN(C(=O)CC(c3ccc(F)cc3)c3cccc(F)c3)CC2)n1 (stereo not drawn)
inhibition: 44.5%

The reported measurements were obtained from ChEMBL document CHEMBL1641559.
